biological target: IRAK4 (Homo sapiens (Human), UniProt Q9NWZ3)
Sequence (Q9NWZ3 whole entry): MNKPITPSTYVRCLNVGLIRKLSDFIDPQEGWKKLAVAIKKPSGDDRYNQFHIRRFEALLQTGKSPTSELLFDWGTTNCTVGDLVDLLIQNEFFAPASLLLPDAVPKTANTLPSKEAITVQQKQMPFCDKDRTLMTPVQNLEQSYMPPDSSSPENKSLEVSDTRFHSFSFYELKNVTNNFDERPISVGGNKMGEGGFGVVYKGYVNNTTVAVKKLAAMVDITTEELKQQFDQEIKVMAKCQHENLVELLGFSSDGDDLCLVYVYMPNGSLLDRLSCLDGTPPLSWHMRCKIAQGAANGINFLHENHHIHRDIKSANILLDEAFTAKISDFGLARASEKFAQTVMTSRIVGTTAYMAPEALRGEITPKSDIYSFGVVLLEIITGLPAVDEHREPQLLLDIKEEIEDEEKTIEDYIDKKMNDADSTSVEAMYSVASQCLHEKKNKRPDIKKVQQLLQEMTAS
Quick rule for you: IC50 under 10 nM gets True, anything else gets False.

Is IC50 of CC(C)Oc1cc2c(OC[C@@H]3CCC(=O)N3)ncc(-c3cnn(C4CCCC4)c3)c2cc1C(N)=O [Compound I-34] strictly below 10 nM?
True

Please let me know if CC(C)Oc1cc2c(O[C@@H]3CCCN(C(=O)CC#N)C3)ncc(-c3cnn(C4CC4)c3)c2cc1C(N)=O [Compound I-114] shows IC50 below 10 nM.
False

hey, is IC50 for CC[C@@H]1[C@H](F)C(=O)N[C@@H]1COc1ncc(C#CC2CCOCC2)c2cc(C(N)=O)c(OC(C)C)cc12 [Compound I-79] lower than 10 nM or not?
False

Check if IC50 falls below 10 nM for CC(C)Oc1cc2c(O[C@@H]3CCCNC3)ncc(-c3cnn(C4CC4)c3)c2cc1C(N)=O [Compound I-108] .
False

Hi there! Is IC50 for CC(C)Oc1cc2c(OC[C@@H]3CC(F)(F)C(=O)N3)ncc(-c3cnn(C4CCN(C(=O)OC(C)(C)C)CC4)c3)c2cc1C(N)=O [Compound I-74] below 10 nM, do you know?
False

Find out if reported IC50 for COC1(OC)CC(C#Cc2cnc(OC[C@@H]3CC(F)(F)C(=O)N3)c3cc(OC(C)C)c(C(N)=O)cc23)C1 [Compound I-65] is less than 10 nM
True

# TODO verify IC50 < 10 nM strictly for this compound: CCO[C@H]1CC[C@H](C#Cc2cnc(OC[C@@H]3CC(F)(F)C(=O)N3)c3cc(OC(C)C)c(C(N)=O)cc23)CC1 [Compound I-58]
False

For CC(C)Oc1cc2c(OC[C@@H]3CCC(=O)N3)ncc(-c3cnn(C4CC4)c3)c2cc1C(N)=O [Compound I-32] , is the recorded IC50 below the cut-off of 10 nM?
True

Problem: For the compound CC(C)Oc1cc2c(O[C@@H]3CCCN(C(=O)CC#N)C3)ncc(C#CC3CN(C(=O)OC(C)(C)C)C3)c2cc1C(N)=O [Compound I-102] , is IC50 under 10 nM?
False
